System: Streptococcus pyogenes
Test: In vitro Minimum inhibitory concentration against Streptococcus pyogenes 930
Assay type: functional
READOUT KIND: MIC (µg/mL)

C[C@H]1C[C@H](N)CN1c1cc2c(cc1F)c(=O)c(C(=O)O)cn2-c1ccc(F)cc1 ... 0.2
N[C@H]1CC(CF)N(c2nc3c(cc2F)c(=O)c(C(=O)O)cn3-c2ccc(F)cc2F)C1 (stereo not given in full) ... 0.2
NC1CCN(c2nc3c(cc2F)c(=O)c(C(=O)O)cn3-c2ccc(F)cc2F)C1 (stereo not given) [TOSUFLOXACIN] ... 0.1

a = C[C@H]1C[C@H](N)CN1c1cc2c(cc1F)c(=O)c(C(=O)O)cn2-c1ccc(F)cc1F
b = O=C(O)c1cn(-c2ccc(F)cc2)c2cc(N3CCC[C@@H]3CO)c(F)cc2c1=O
Query: Exercise: compare a and b ; which one has the greater MIC? Lab log: write the label of the selected item as the result.
Result: b
(b: 3.1 µg/mL, a: 0.2 µg/mL)
